The origin of these recorded values is patent US20260184697A1.

test system: Karpas-422 cells; test: Anti-proliferation by Cell Titer-Glo method (Test Example 3); assay type: cell-based; conditions: Homo sapiens; Karpas-422 cells, Cell-Titer Glo on the eleventh day; read-out: Test Example 3 Karpas-422 cell anti-proliferation IC50
MEASURED ATTRIBUTE: IC50 (nM)

Example entries and their recorded answers appear below.
CSc1cc(C)[nH]c(=O)c1CNC(=O)c1cc(Cl)c2c(c1C)O[C@@H]([C@H]1CC[C@H](N3CCN(C)CC3)CC1)CO2 | 89.5
COC1CN([C@H]2CC[C@@H]([C@H]3COc4c(F)cc(C(=O)NCc5c(SC)cc(C)[nH]c5=O)c(C)c4O3)CC2)C1 | 1.8
CSc1cc(C)[nH]c(=O)c1CNC(=O)c1cc(Cl)c2c(c1C)OC(C1CCC(N(C)C)CC1)CO2 (centres unmarked) | 7.6
COC1CN([C@H]2CC[C@@H]([C@H]3COc4c(Cl)cc(C(=O)NCc5c(Cl)cc(C)[nH]c5=O)c(C)c4O3)CC2)C1 | 13.6
COCCOC1CN([C@H]2CC[C@@H]([C@H]3COc4c(Cl)cc(C(=O)NCc5c(OC)cc(C)[nH]c5=O)c(C)c4O3)CC2)C1 | 3.8
COc1cc(C)[nH]c(=O)c1CNC(=O)c1cc(Cl)c2c(c1C)O[C@@H]([C@H]1CC[C@@H](N(C)C)CC1)CO2 | 5.1
CSc1cc(C)[nH]c(=O)c1CNC(=O)c1cc(Cl)c2c(c1C)O[C@@H]([C@H]1CC[C@@H](N3CC(CF)C3)CC1)CO2 | 5.8
COC1CN([C@H]2CC[C@H]([C@H]3COc4c(Cl)cc(C(=O)NCc5c(Cl)cc(C)[nH]c5=O)c(C)c4O3)CC2)C1 | 197

a. Cc1cc(C)c(CNC(=O)c2cc(Cl)c3c(c2C)OC[C@@H]([C@H]2CC[C@@H](N(C)C)CC2)O3)c(=O)[nH]1
b. COC1CN(C2CCC(C3COc4c(Cl)cc(C(=O)NCc5c(C)cc(C)[nH]c5=O)c(C)c4O3)CC2)C1 (single isomer, unassigned)
c. COC1CN([C@H]2CC[C@@H]([C@H]3COc4c(Cl)cc(C(=O)NCc5c(SC)cc(C)[nH]c5=O)c(Cl)c4O3)CC2)C1
d. COc1cc(C)[nH]c(=O)c1CNC(=O)c1cc(Cl)c2c(c1C)O[C@@H]([C@H]1CC[C@@H](N3CC(OC)C3)CC1)CO2
e. COc1cc(C)[nH]c(=O)c1CNC(=O)c1cc(Cl)c2c(c1C)O[C@@H]([C@H]1CC[C@@H](N3CC[C@H](OC)C3)CC1)CO2
stdin: // sort entries: IC50, high to low Put the labels in the requested order and list them out.
stdout: b, a, e, d, c
(b: 93.8 nM, a: 47.3 nM, e: 12.9 nM, d: 5.3 nM, c: 2.7 nM)

1. COc1cc(C)[nH]c(=O)c1CNC(=O)c1cc(Cl)c2c(c1C)O[C@@H]([C@H]1CC[C@@H](N3CC(OCCF)C3)CC1)CO2
2. Cc1cc(Cl)c(CNC(=O)c2cc(Cl)c3c(c2C)O[C@@H]([C@H]2CC[C@H](N(C)C)CC2)CO3)c(=O)[nH]1
stdin: In the pair 1 and 2 , the larger recorded IC50 belongs to which? Write the label of whichever entry you select.
stdout: 2
(2: 5.6 nM, 1: 2.5 nM)

1. Cc1cc(Cl)c(CNC(=O)c2cc(Cl)c3c(c2C)O[C@@H]([C@H]2CC[C@@H](N(C)C)CC2)CO3)c(=O)[nH]1
2. C#Cc1cc(C(=O)NCc2c(SC)cc(C)[nH]c2=O)c(C)c2c1OC[C@H]([C@H]1CC[C@@H](N3CC(OC)C3)CC1)O2
stdin: Between the entries labelled 1 and 2 , which has a larger IC50 value on record? // respond with label for picked entry
stdout: 1

----------
biological target: EZH2/SUZ/EED (Homo sapiens, UniProt O75530+Q15022+Q15910); experiment: Inhibitory effect on EZH2 by the MTase-Glo method (Test Example 1); settings: EZH2/SUZ/EED 6.25 nM, H3 peptide 10 μM, SAM 3 μM, 30° C. 3 h, read-out: Test Example 1 WT EZH2 IC50
Sequence (Q15910 2-746 limits assumed, one chain of several): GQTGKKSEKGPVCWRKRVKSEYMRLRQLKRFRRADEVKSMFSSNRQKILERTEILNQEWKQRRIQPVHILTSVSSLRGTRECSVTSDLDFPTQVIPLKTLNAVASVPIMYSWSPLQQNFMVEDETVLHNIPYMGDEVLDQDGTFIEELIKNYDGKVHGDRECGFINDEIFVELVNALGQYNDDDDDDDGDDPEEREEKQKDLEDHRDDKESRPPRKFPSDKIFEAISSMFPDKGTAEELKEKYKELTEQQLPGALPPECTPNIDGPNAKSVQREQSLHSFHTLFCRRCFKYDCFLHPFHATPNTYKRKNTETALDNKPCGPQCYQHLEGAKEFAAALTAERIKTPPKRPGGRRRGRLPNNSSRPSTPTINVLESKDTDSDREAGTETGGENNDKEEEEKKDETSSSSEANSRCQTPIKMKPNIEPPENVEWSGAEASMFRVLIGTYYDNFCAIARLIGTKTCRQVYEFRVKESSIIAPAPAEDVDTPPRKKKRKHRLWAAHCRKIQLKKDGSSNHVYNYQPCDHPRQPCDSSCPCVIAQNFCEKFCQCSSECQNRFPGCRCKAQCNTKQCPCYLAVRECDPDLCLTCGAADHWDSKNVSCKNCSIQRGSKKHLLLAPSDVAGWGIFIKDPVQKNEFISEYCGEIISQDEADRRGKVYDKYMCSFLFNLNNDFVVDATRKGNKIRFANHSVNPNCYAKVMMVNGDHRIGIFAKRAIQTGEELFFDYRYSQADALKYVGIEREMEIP
pIC50: −log10 of the molar value.
MEASURED ATTRIBUTE: pIC50

Cc1cc(C)c(CNC(=O)c2cc(Cl)c3c(c2C)OC(C2CCC(NC4CC(F)(F)C4)CC2)CO3)c(=O)[nH]1 (single isomer, unassigned) [Compound 67] | 7.32
COC1CN(C2CCC(C3COc4c(Cl)cc(C(=O)NCc5c(C)cc(C)[nH]c5=O)c(C)c4O3)CC2)C1 (single isomer, unassigned) [Compound 61] | 8.06
Cc1cc(C)c(CNC(=O)c2cc(Cl)c3c(c2C)OC[C@H]([C@H]2CC[C@@H](N(C)C)CC2)O3)c(=O)[nH]1 [Compound 56] | 6.47
CON(C)C1CCC(C2COc3c(Cl)cc(C(=O)NCc4c(C)cc(C)[nH]c4=O)c(C)c3O2)CC1 (single isomer, unassigned) [Compound 78] | 7.92

1. CSc1cc(C)[nH]c(=O)c1CNC(=O)c1cc(C#N)c2c(c1C)O[C@@H]([C@H]1CC[C@@H](N3CC(OC4CC4)C3)CC1)CO2 [Compound 159]
2. [2H]C([2H])([2H])OC1CN([C@H]2CC[C@H]([C@H]3COc4c(Cl)cc(C(=O)NCc5c(SC)cc(C)[nH]c5=O)c(C)c4O3)CC2)C1 [Compound 21]
3. Cc1cc(C)c(CNC(=O)c2cc(Cl)c3c(c2C)OC(C2CCC(NC4CC(F)C4)CC2)CO3)c(=O)[nH]1 (single isomer, unassigned) [Compound 65]
stdin: I would appreciate it if you could sort these 3 compounds by pIC50, starting from the smallest number. Write the labels, ordered according to the request.
stdout: 3, 2, 1

----------
molecular target: EZH1/SUZ/EED (Homo sapiens, UniProt O75530+Q15022+Q92800); experiment: Inhibitory effect on EZH1 by the MTase-Glo method (Test Example 1); settings: EZH1/SUZ/EED 25 nM, H3 peptide 10 μM, SAM 3 μM, 30° C. 3 h, read-out: Test Example 1 WT EZH1 IC50
Sequence (Q92800 2-747 limits assumed): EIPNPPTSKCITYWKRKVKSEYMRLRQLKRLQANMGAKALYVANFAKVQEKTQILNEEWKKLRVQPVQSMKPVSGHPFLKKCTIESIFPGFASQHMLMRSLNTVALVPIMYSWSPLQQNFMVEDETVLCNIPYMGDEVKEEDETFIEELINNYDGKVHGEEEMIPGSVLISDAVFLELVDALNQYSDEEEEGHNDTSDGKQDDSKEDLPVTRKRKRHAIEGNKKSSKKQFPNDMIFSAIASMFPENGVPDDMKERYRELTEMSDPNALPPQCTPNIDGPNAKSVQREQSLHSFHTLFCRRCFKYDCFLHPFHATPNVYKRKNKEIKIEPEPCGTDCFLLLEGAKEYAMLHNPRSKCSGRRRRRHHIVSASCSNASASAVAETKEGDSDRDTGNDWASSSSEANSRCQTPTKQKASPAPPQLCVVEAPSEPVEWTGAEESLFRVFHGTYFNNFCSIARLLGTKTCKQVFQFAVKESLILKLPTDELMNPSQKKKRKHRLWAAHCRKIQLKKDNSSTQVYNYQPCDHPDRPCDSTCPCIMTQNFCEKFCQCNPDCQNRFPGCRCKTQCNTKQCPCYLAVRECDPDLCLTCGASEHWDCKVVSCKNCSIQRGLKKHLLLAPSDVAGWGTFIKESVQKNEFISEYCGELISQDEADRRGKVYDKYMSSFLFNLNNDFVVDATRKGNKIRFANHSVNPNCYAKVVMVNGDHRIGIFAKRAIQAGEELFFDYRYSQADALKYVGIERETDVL
Sequence (Q15022 2-739 partner limits assumed): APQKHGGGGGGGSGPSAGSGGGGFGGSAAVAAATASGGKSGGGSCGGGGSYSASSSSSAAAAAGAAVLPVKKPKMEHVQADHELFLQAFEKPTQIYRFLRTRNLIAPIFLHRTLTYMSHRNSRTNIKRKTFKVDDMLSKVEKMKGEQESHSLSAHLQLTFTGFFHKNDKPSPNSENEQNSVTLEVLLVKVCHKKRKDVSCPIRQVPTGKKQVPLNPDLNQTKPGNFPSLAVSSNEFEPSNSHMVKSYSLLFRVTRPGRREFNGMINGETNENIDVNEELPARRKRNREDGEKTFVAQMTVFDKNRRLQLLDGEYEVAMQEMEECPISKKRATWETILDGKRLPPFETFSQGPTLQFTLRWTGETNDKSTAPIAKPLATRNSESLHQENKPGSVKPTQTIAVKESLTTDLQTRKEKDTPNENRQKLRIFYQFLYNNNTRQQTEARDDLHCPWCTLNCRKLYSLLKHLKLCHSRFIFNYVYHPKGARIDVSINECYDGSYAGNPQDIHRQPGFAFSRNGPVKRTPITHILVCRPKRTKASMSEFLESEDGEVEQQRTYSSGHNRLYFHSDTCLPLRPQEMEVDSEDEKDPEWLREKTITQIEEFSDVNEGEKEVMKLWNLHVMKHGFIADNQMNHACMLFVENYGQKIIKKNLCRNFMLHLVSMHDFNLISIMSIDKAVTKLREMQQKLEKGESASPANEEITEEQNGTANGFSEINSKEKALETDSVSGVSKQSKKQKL
Sequence (O75530 2-441 partner limits assumed): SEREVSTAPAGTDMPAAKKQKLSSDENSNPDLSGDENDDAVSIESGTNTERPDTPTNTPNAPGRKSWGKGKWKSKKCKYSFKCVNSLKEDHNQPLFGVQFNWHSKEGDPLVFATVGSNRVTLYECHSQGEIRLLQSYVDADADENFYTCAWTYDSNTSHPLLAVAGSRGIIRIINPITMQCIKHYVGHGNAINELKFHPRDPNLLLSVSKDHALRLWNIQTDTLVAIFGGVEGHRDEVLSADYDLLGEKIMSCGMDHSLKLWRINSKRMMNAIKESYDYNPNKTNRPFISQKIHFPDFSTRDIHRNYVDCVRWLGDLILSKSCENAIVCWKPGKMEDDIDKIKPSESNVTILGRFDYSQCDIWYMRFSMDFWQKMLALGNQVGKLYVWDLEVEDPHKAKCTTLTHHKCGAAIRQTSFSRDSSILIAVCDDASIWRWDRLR
MEASURED ATTRIBUTE: IC50 (nM)

COc1cc(C)[nH]c(=O)c1CNC(=O)c1cc(Cl)c2c(c1C)O[C@@H]([C@H]1CC[C@@H](N3CC4CC4C3)CC1)CO2 (some centres unmarked) [Compound 113] | 91.2

a. [2H]C([2H])([2H])OC1CN([C@H]2CC[C@H]([C@H]3COc4c(Cl)cc(C(=O)NCc5c(SC)cc(C)[nH]c5=O)c(C)c4O3)CC2)C1 [Compound 21]
b. CSc1cc(C)[nH]c(=O)c1CNC(=O)c1cc(Cl)c2c(c1C)O[C@H](C1CCN(CC3CC3)CC1)CO2 [Compound 31]
c. Cc1cc(C)c(CNC(=O)c2cc(Cl)c3c(c2C)O[C@@H](C2CCN(CC4CC4)CC2)CO3)c(=O)[nH]1 [Compound 90]
stdin: I would appreciate it if you could sort these 3 compounds by IC50, starting from the smallest number. Sort and list the labels as requested.
stdout: a, b, c

----------
molecular target: EZH2/SUZ/EED (Homo sapiens, UniProt O75530+Q15022+Q15910); test: Inhibitory effect on EZH2 by the MTase-Glo method (Test Example 1); settings: EZH2/SUZ/EED 6.25 nM, H3 peptide 10 μM, SAM 3 μM, 30° C. 3 h, read-out: Test Example 1 WT EZH2 IC50
MEASURED ATTRIBUTE: IC50 (nM)

Recorded IC50, per entry:
COc1c(Cl)c2c(c(C)c1C(=O)NCc1c(C)cc(C)[nH]c1=O)O[C@@H]([C@H]1CC[C@@H](N(C)C)CC1)CO2 | 6.6
Cc1cc(C)c(CNC(=O)c2cc(Cl)c3c(c2C)OC(C2CCC(N4CC5COCC5C4)CC2)CO3)c(=O)[nH]1 (single isomer, unassigned) [Compound 59] | 9.6
Cc1cc(C)c(CNC(=O)c2cc(Cl)c3c(c2C)CC(C)(C2CCC(N(C)C)CC2)O3)c(=O)[nH]1 (centres unmarked) | 30.4
COCCN(C)[C@H]1CC[C@@H]([C@H]2COc3c(Cl)cc(C(=O)NCc4c(OC)cc(C)[nH]c4=O)c(C)c3O2)CC1 | 3.2
Cc1cc(C)c(CNC(=O)c2cc(Cl)c3c(c2C)OC(C2CCC(N4CC(OC5CC5)C4)CC2)CO3)c(=O)[nH]1 (single isomer, unassigned) [Compound 76] | 7.6

P. CSc1cc(C)[nH]c(=O)c1CNC(=O)c1cc(Cl)c2c(c1C)O[C@H]([C@H]1CC[C@@H](N3CC(OC4CC4)C3)CC1)CO2
Q. COCCN1CCC([C@H]2COc3c(Cl)cc(C(=O)NCc4c(SC)cc(C)[nH]c4=O)c(C)c3O2)CC1
R. Cc1cc(C)c(CNC(=O)c2c(C)c3c(c(Cl)c2F)OC[C@H]([C@H]2CC[C@H](N(C)C)CC2)O3)c(=O)[nH]1
S. Cc1cc(C)c(CNC(=O)c2cc(Cl)c3c(c2C)OC(C2CCC(N(C)CCF)CC2)CO3)c(=O)[nH]1 (centres unmarked)
T. CSc1cc(C)[nH]c(=O)c1CNC(=O)c1cc(Cl)c2c(c1C)O[C@H](C1CCN(CC3CC3)CC1)CO2
stdin: // smallest IC50 at index 0, largest at the end Please reply with the labels ordered as requested. Many thanks.
stdout: Q, R, P, S, T
